# target.entity: human mGluR2 (Homo sapiens, UniProt Q14416)
# Construct: expressed in transfected cells; host or cells: HEK293 clonal line
# Sequence (Q14416 19-872): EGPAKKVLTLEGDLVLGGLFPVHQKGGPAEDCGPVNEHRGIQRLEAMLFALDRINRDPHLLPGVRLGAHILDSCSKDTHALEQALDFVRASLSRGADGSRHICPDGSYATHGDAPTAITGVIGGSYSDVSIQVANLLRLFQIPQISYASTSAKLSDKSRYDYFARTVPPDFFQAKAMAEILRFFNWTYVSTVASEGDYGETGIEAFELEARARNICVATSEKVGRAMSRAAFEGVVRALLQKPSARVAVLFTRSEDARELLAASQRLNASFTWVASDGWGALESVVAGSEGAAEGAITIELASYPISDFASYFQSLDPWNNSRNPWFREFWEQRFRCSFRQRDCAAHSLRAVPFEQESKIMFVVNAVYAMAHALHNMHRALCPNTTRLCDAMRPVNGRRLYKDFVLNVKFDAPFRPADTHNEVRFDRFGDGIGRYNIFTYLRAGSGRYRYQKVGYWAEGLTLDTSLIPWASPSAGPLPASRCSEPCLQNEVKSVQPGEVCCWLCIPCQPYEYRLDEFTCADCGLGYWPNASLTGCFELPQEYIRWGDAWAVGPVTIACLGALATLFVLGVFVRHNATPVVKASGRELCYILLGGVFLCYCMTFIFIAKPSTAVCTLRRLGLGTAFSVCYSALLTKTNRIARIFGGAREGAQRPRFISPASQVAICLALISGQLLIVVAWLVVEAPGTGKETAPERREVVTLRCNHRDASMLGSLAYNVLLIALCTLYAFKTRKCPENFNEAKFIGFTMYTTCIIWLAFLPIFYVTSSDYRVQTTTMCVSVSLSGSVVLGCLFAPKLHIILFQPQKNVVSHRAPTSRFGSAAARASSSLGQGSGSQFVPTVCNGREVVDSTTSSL
# protocol.notes: mGluR2 cAMP assay
# Format: cell-based
# test.settings: clonally expressed human mGluR2 in HEK293; 1 μM forskolin, 1 μM LY-341495, 30 min; CISBIO cAMP kit; read-out: EC50 (nM), activity in mGluR2 cAMP assay
Structures can show the parent of a compound that is named as a salt.
parameter.measured: EC50 (nM)

P. N#C[C@]1(c2ccc(F)cc2)C[C@H](Oc2ccn3c(CC4CC4)nnc3c2C(F)(F)F)C1
Q. COc1ccccc1[C@]1(C#N)C[C@@H](Oc2ccn3c(CC4CC4)nnc3c2C(F)(F)F)C1
### Prompt Lowest EC50? choose P or Q // output: label of the selected item
### Response Q
(Q: 0.3 nM, P: 2.7 nM)

1. Fc1ccc([C@@H]2C[C@H]2COc2ccn3c(CC4CC4)nnc3c2C(F)(F)F)cc1 (single isomer, unassigned)
2. Fc1cccc(F)c1COc1ccn2c(CC3CC3)nnc2c1Cl
### Prompt Lowest EC50? choose 1 or 2 // output: label of the selected item
### Response 1
(1: 1.1 nM, 2: 11 nM)

A. COc1ccc([C@H]2C[C@@H]2COc2ccn3c(CC4CC4)nnc3c2C(F)(F)F)cc1 (racemic)
B. CCOCc1nnc2c(C(F)(F)F)c(OCC(C)(C)Oc3ccc(Cl)cc3)ccn12
### Prompt Param pair: A , B . Output: the one whose EC50 is numerically greater. // output: label of the selected item
### Response B
(B: 5.9 nM, A: 1.3 nM)

A. CO[C@]1(c2ccc(F)cc2)CC[C@H](Oc2ccn3c(C4CC4(F)F)nnc3c2C(F)(F)F)CC1 (single isomer, unassigned) [Example 87, TFA salt]
B. CC(C)(COc1ccn2c(CC3CC3)nnc2c1C(F)(F)F)c1ccc(F)cc1
### Prompt Lowest EC50? choose A or B // output: label of the selected item
### Response B
(B: 11 nM, A: 61 nM)

A. N#Cc1c(OC[C@H]2C[C@@H]2c2ccc(F)cc2)ccn2c(CC3CC3)nnc12
B. FC(F)(F)c1c(OCC(F)(F)c2ccccc2)ccn2c(CC3CC3)nnc12
C. C[C@H](COc1ccn2c(CC3CC3)nnc2c1C(F)(F)F)c1c(F)cccc1Cl (single isomer, unassigned)
D. COCc1nnc2c(C(F)(F)F)c(OCC(C)(C)Oc3ccc(Cl)cc3)ccn12 [Example 23, TFA salt]
E. COC(C)(COc1ccn2c(CC3CC3)nnc2c1C(F)(F)F)c1ccc(F)cc1 (racemic)
### Prompt Rank items: key EC50, increasing. List the labels, following the order given in the request.
### Response C, B, A, E, D

====

# target.entity: human mGluR2 (Homo sapiens)
# Construct: expressed in transfected cells; host or cells: HEK293 clonal line
# protocol.notes: mGluR2 cAMP assay
# Assay type: cell-based
# test.settings: clonally expressed human mGluR2 in HEK293; 1 μM forskolin, 1 μM LY-341495, 30 min; CISBIO cAMP kit; read-out: EC50 (nM), activity in mGluR2 cAMP assay
parameter.measured: EC50 (nM)

| compound | target.entity | EC50 [nM] |
| --- | --- | --- |
| CO[C@]1(c2ccc(F)cc2)CC[C@H](Oc2ccn3c(C4CC4)nnc3c2C(F)(F)F)CC1 | human mGluR2 (Homo sapiens) | 35 |
| CO[C@]1(c2ccc(F)cc2)CC[C@H](Oc2ccn3c(C4CC(F)(F)C4)nnc3c2C(F)(F)F)CC1 | human mGluR2 (Homo sapiens) | 20 |
| FC(F)(F)c1c(O[C@H]2C[C@H](c3ccccc3)C2)ccn2c(CC3CC3)nnc12 | human mGluR2 (Homo sapiens) | 0.5 |
| C[C@](C#N)(COc1ccn2c(CC3CC3)nnc2c1C(F)(F)F)c1ccc(F)cc1 (single isomer, unassigned) | human mGluR2 (Homo sapiens) | 80 |
| Fc1ccc(F)c([C@H]2C[C@@H]2COc2ccn3c(CC4CC4)nnc3c2C(F)(F)F)c1 (racemic) | human mGluR2 (Homo sapiens) | 1.9 |

A. Fc1ccc(C2CC2COc2ccn3c(CC4CC4)nnc3c2C(F)(F)F)cc1 (single isomer, unassigned)
B. CC(C)(COc1ccn2c(CC(F)(F)F)nnc2c1C(F)(F)F)c1ccc(Cl)cc1
### Prompt Lowest EC50? choose A or B // output: label of the selected item
### Response A
(A: 2.6 nM, B: 13 nM)

====

# target.entity: human mGluR2 (Homo sapiens)
# Construct: expressed in transfected cells; host or cells: HEK293 clonal line
# protocol.notes: mGluR2 cAMP assay
# Format: cell-based
# test.settings: clonally expressed human mGluR2 in HEK293; 1 μM forskolin, 1 μM LY-341495, 30 min; CISBIO cAMP kit; read-out: EC50 (nM), activity in mGluR2 cAMP assay
Where a name gives a salt, the structure may show the parent alone.
parameter.measured: EC50 (nM)

| compound | target.entity | EC50, nM |
| --- | --- | --- |
| COc1cccc(COc2ccn3c(CC4CC4)nnc3c2Cl)c1 [Example 61] | human mGluR2 (Homo sapiens) | 40 |
| COc1ccc(F)cc1COc1ccn2c(CC3CC3)nnc2c1Cl [Example 74] | human mGluR2 (Homo sapiens) | 21 |
| FC(COc1ccn2c(CC3CC3)nnc2c1C(F)(F)F)c1ccccc1 (racemic) [Example 84] | human mGluR2 (Homo sapiens) | 5.8 |
| CO[C@]1(c2ccc(F)cc2)CC[C@H](Oc2ccn3c([C@@H]4C[C@H]4F)nnc3c2C(F)(F)F)CC1 (relative stereo) [Example 89] | human mGluR2 (Homo sapiens) | 41 |
| FC(F)(F)c1c(O[C@H]2CC[C@H](c3ccccc3)CC2)ccn2c(CC3CC3)nnc12 [Example 20] | human mGluR2 (Homo sapiens) | 0.4 |

P. Clc1ccccc1COc1ccn2c(CC3CC3)nnc2c1Cl [Example 66]
Q. C[C@@H](COc1ccn2c(CC3CC3)nnc2c1C(F)(F)F)c1c(F)cccc1Cl (single isomer, unassigned) [Example 9]
R. Cc1cccc(COc2ccn3c(CC4CC4)nnc3c2Cl)c1 [Example 67]
S. N#C[C@]1(c2ccc(F)cc2)CC[C@H](Oc2ccn3c(CC4CC4)nnc3c2C(F)(F)F)CC1 [Example 17]
### Prompt Sort by EC50, descending. List the labels, following the order given in the request.
### Response R, P, S, Q
(R: 55 nM, P: 11 nM, S: 1.4 nM, Q: 0.8 nM)

A. CC(C)(COc1ccn2c(CC3CC3)nnc2c1C(F)(F)F)Oc1ccc(F)cc1F [Example 16]
B. CC(C)(COc1ccn2c(COCC(F)(F)F)nnc2c1C(F)(F)F)Oc1ccc(Cl)cc1 [Example 22, TFA salt]
C. FC(F)(F)c1c(OCC2(c3cc(Cl)cc(Cl)c3)CC2)ccn2c(CC3CC3)nnc12 [Example 56]
D. COc1cc(F)ccc1[C@H]1C[C@@H]1COc1ccn2c(CC3CC3)nnc2c1C(F)(F)F (racemic) [Example 49]
### Prompt Rank items: key EC50, increasing. List the labels, following the order given in the request.
### Response D, B, A, C

A. Clc1c(OCc2cccc(OC3CC3)c2)ccn2c(CC3CC3)nnc12 [Example 75]
B. Fc1ccc([C@H]2C[C@H](Oc3ccn4c(C5CC5(F)F)nnc4c3C(F)(F)F)C2)cc1 (mixture of isomers) [Example 98]
### Prompt Lowest EC50? choose A or B // output: label of the selected item
### Response B
(B: 5.1 nM, A: 29 nM)

====

# target.entity: human mGluR2 (Homo sapiens)
# Construct: expressed in transfected cells; host or cells: HEK293 clonal line
# protocol.notes: mGluR2 cAMP assay
# Format: cell-based
# test.settings: clonally expressed human mGluR2 in HEK293; 1 μM forskolin, 1 μM LY-341495, 30 min; CISBIO cAMP kit; read-out: EC50 (nM), activity in mGluR2 cAMP assay
Structures can show the parent of a compound that is named as a salt.
parameter.measured: EC50 (nM)

Reference set (6 entries):
| molecule | units.text | EC50 |
| --- | --- | --- |
| CC(COc1ccn2c(CC3CC3)nnc2c1C(F)(F)F)c1ccc(F)cc1 (racemic) [Example 4, TFA salt] | nM | 10 |
| Clc1c(OCCCc2cccnc2)ccn2c(CC3CC3)nnc12 [Example 62] | nM | 270 |
| Fc1ccc(C2(COc3ccn4c(CC5CC5)nnc4c3C(F)(F)F)CC2)cc1 [Example 30] | nM | 16 |
| N#C[C@]1(c2cccc(F)c2)C[C@H](Oc2ccn3c(CC4CC4)nnc3c2C(F)(F)F)C1 [Example 46] | nM | 0.5 |
| Clc1c(OCCc2ccccc2)ccn2c(CC3CC3)nnc12 [Example 64] | nM | 32 |
| COc1cc(COc2ccn3c(CC4CC4)nnc3c2Cl)ccc1F [Example 65] | nM | 110 |

1. Fc1ccc(C2(COc3ccn4c(CC5CC5)nnc4c3C(F)(F)F)CC2)c(F)c1 [Example 51]
2. COc1cccc(F)c1[C@@H]1C[C@H]1COc1ccn2c(CC3CC3)nnc2c1C(F)(F)F (single isomer, unassigned) [Example 36]
### Prompt Lowest EC50? choose 1 or 2 // output: label of the selected item
### Response 2
(2: 0.2 nM, 1: 43 nM)

1. COc1ccc(COc2ccn3c(CC4CC4)nnc3c2Cl)cc1 [Example 70]
2. FC(F)(F)c1c(OCC2(c3ccccc3)CCCCC2)ccn2c(CC3CC3)nnc12 [Example 1]
3. CO[C@]1(c2ccc(F)cc2)CC[C@H](Oc2ccn3c(C4CC4(C)C)nnc3c2C(F)(F)F)CC1 (mixture of isomers) [Example 94]
### Prompt Sort by EC50, descending. List the labels, following the order given in the request.
### Response 1, 3, 2
